thrombin peak (nM) at 6.25 nM, FVIII-neutralised plasma + 2 nM TFPIα listing for selected binders.
# study-target: human TFPI alpha (full-length TFPIα) (human, UniProt P10646 29-304)
# test-description: cell-based or functional assay
Give the value, in units of nM, as a plain number.

Worked examples, 2 binders total:
Fab 0088 (Fab fragment of mAb 2021) (Fab, V domains shown, free C-terminal cysteine; KPI-2 specific) VH: EVQLVESGGGLVKPGGSLRLSCAASGFTFSNYAMSWVRQTPEKRLEWVATISRSGSYSYFPDSVQGRFTISRDNAKNSLYLQMNSLRAEDTAVYYCARLGGYDEGDAMDSWGQGTTVTVSS VL: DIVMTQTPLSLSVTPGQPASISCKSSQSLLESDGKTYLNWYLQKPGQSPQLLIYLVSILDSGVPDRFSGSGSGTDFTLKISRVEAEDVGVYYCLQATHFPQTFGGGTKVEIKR    38.4
mAb 2021 (antibody, human IgG4 S228P, kappa, V domains shown) VH: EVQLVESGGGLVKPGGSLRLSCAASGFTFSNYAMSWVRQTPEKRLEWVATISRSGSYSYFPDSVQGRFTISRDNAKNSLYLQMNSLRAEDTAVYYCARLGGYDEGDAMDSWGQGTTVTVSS VL: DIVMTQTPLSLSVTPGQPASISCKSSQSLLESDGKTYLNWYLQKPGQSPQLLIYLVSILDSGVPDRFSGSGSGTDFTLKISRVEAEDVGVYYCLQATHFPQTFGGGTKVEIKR    48.9

Q: Quick one: thrombin peak (nM) at 6.25 nM, FVIII-neutralised plasma + 2 nM TFPIα for Fab 0094 (Fab fragment of mAb 2007) (Fab, V domains shown, KPI-2 specific) VH: EVQLVESGGGLVKPGGSLRLSCAASGFTFSNYAMSWVRQAPGKGLEWVSTISRSGSYSYYPDSVKGRFTISRDNAKNSLYLQMNSLRAEDTAVYYCARLGGYDEGDAMDSWGQGTTVTVSS VL: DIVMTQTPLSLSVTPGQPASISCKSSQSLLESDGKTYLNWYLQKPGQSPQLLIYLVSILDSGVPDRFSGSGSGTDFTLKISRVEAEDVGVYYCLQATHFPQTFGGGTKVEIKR ?
Ans: 5.9

Q: Quick one: thrombin peak (nM) at 6.25 nM, FVIII-neutralised plasma + 2 nM TFPIα for Fab 0095 (Fab fragment of mAb 2014) (Fab, V domains shown, KPI-2 specific) VH: EVQLVESGGGLVKPGGSLRLSCAASGFTFSNYAMSWVRQAPGKGLEWVSTISRSGSYSYYADSVKGRFTISRDNAKNSLYLQMNSLRAEDTAVYYCARLGGYDEGDAMDSWGQGTTVTVSS VL: DIVMTQTPLSLSVTPGQPASISCKSSQSLLESDGKTYLNWLLQRPGESPKLLIYLVSILDSGVPDRFSGSGSGTDFTLKISRVEAEDVGVYYCLQATHFPQTFGGGTKVEIKR ?
Ans: 13.3

Where do the numbers come from? From patent US20180208675A1.
